A collection of compounds and their measured relative viability
System: NCI-H522
Assay: relative viability (nuclei count vs DMSO), 5 days (fraction); higher = more cells survive
Settings: first compound 0.6325 µM
quantity.measured: relative viability

| compound | quantity.measured | value.observed |
| --- | --- | --- |
| COCC1(CO)C(=O)C2CCN1CC2 (centres undefined) [PRIMA-1MET] + Cc1nc(Nc2ncc(C(=O)Nc3c(C)cccc3Cl)s2)cc(N2CCN(CCO)CC2)n1 [Dasatinib] (partner 0.075 µM) | relative viability | 0.738 |
| COCC1(CO)C(=O)C2CCN1CC2 (centres undefined) [PRIMA-1MET] + CC(=O)Nc1cccc(-n2c(=O)n(C3CC3)c(=O)c3c(Nc4ccc(I)cc4F)n(C)c(=O)c(C)c32)c1 [Trametinib] (partner 0.02 µM) | relative viability | 0.673 |
| COCC1(CO)C(=O)C2CCN1CC2 (centres undefined) [PRIMA-1MET] + Nc1nc2[nH]cc(CCc3ccc(C(=O)N[C@@H](CCC(=O)O)C(=O)O)cc3)c2c(=O)[nH]1 [Pemetrexed] (partner 0.2 µM) | relative viability | 0.927 |
| COCC1(CO)C(=O)C2CCN1CC2 (centres undefined) [PRIMA-1MET] + O=C(CCCCCCC(=O)Nc1ccccc1)NO [Vorinostat] (partner 1 µM) | relative viability | 0.923 |

====

A collection of compounds and their measured relative viability
System: NCI-H661
Assay: relative viability (nuclei count vs DMSO), 5 days (fraction); higher = more cells survive
Conditions: first compound 0.2 µM
quantity.measured: relative viability

| compound | value.observed |
| --- | --- |
| COCC1(CO)C(=O)C2CCN1CC2 (centres undefined) [PRIMA-1MET] + COc1cc2c(Oc3ccc(NC(=O)C4(C(=O)Nc5ccc(F)cc5)CC4)cc3F)ccnc2cc1OCCCN1CCOCC1 [Foretinib] (partner 0.25 µM) | 1.07 |
| COCC1(CO)C(=O)C2CCN1CC2 (centres undefined) [PRIMA-1MET] + Cc1nc(Nc2ncc(C(=O)Nc3c(C)cccc3Cl)s2)cc(N2CCN(CCO)CC2)n1 [Dasatinib] (partner 0.075 µM) | 0.858 |
| COCC1(CO)C(=O)C2CCN1CC2 (centres undefined) [PRIMA-1MET] + C[C@@H](Oc1cc(-c2cnn(C3CCNCC3)c2)cnc1N)c1c(Cl)ccc(F)c1Cl [Crizotinib] (partner 1 µM) | 1.15 |
| COCC1(CO)C(=O)C2CCN1CC2 (centres undefined) [PRIMA-1MET] + COc1cccc2cc(-c3nc([C@H]4CC[C@H](C(=O)O)CC4)n4ncnc(N)c34)[nH]c12 [OSI-027] (partner 0.5 µM) | 0.747 |

====

System: NCI-H1993
Experiment: relative viability (nuclei count vs DMSO), 5 days (fraction); higher = more cells survive
Conditions: first compound 0.3162 µM
quantity.measured: relative viability

| molecule | quantity.measured | value.observed |
| --- | --- | --- |
| CCN(CC)CCCCNc1ncc2cc(-c3cc(OC)cc(OC)c3)c(NC(=O)NC(C)(C)C)nc2n1 + CS(=O)(=O)N1CCN(Cc2cc3nc(-c4cccc5[nH]ncc45)nc(N4CCOCC4)c3s2)CC1 [Pictilisib] (partner 1 µM) | relative viability | 0.86 |
| O=c1cc(N2CCOCC2)oc2c(-c3cccc4c3sc3ccccc34)cccc12 + CS(=O)(=O)N1CCN(Cc2cc3nc(-c4cccc5[nH]ncc45)nc(N4CCOCC4)c3s2)CC1 [Pictilisib] (partner 1 µM) | relative viability | 0.759 |
| CCN(CC)CCCCNc1ncc2cc(-c3cc(OC)cc(OC)c3)c(NC(=O)NC(C)(C)C)nc2n1 + CS(=O)(=O)CCNCc1ccc(-c2ccc3ncnc(Nc4ccc(OCc5cccc(F)c5)c(Cl)c4)c3c2)o1 [Lapatinib] (partner 2 µM) | relative viability | 0.785 |
| CCN(CC)CCCCNc1ncc2cc(-c3cc(OC)cc(OC)c3)c(NC(=O)NC(C)(C)C)nc2n1 + NC(=O)Nc1cc(-c2cccc(F)c2)sc1C(=O)N[C@H]1CCCNC1 [AZD7762] (partner 0.2 µM) | relative viability | 0.97 |

====

System: ChaGo-K-1
Assay: relative viability (nuclei count vs DMSO), 5 days (fraction); higher = more cells survive
Details: first compound 0.253 µM
Could you mark each record true if its relative viability falls strictly under 0.8, and false if it equals or exceeds it?

| compound | class |
| --- | --- |
| O=c1cc(-c2cccc3c2Sc2ccccc2S3)oc(N2CCOCC2)c1 + CC(=O)Nc1cccc(-n2c(=O)n(C3CC3)c(=O)c3c(Nc4ccc(I)cc4F)n(C)c(=O)c(C)c32)c1 [Trametinib] (partner 0.02 µM) | false |
| COc1nc(C)cnc1NS(=O)(=O)c1cccnc1-c1ccc(-c2nnco2)cc1 [Zibotentan] + CC(=O)c1c(C)c2cnc(Nc3ccc(N4CCNCC4)cn3)nc2n(C2CCCC2)c1=O [Palbociclib] (partner 0.5 µM) | false |
| O=c1cc(-c2cccc3c2Sc2ccccc2S3)oc(N2CCOCC2)c1 + CCNC(=O)c1noc(-c2cc(C(C)C)c(O)cc2O)c1-c1ccc(CN2CCOCC2)cc1 [Luminespib] (partner 0.01 µM) | true |
| O=c1cc(-c2cccc3c2Sc2ccccc2S3)oc(N2CCOCC2)c1 + O=C(c1cc(Cc2n[nH]c(=O)c3ccccc23)ccc1F)N1CCN(C(=O)C2CC2)CC1 [Olaparib] (partner 8 µM) | true |
| O=c1cc(-c2cccc3c2Sc2ccccc2S3)oc(N2CCOCC2)c1 + Cc1nc(Nc2ncc(C(=O)Nc3c(C)cccc3Cl)s2)cc(N2CCN(CCO)CC2)n1 [Dasatinib] (partner 0.075 µM) | true |
| O=c1cc(-c2cccc3c2Sc2ccccc2S3)oc(N2CCOCC2)c1 + CS(=O)(=O)N1CCN(Cc2cc3nc(-c4cccc5[nH]ncc45)nc(N4CCOCC4)c3s2)CC1 [Pictilisib] (partner 1 µM) | true |

====

A collection of compounds and their measured relative viability
Test system: EPLC-272H
Test: relative viability (nuclei count vs DMSO), 5 days (fraction); higher = more cells survive
Details: first compound 0.8 µM

| compound | study.target | relative viability |
| --- | --- | --- |
| O=c1cc(-c2cccc3c2Sc2ccccc2S3)oc(N2CCOCC2)c1 + CS(=O)(=O)N1CCN(Cc2cc3nc(-c4cccc5[nH]ncc45)nc(N4CCOCC4)c3s2)CC1 [Pictilisib] (partner 1 µM) | EPLC-272H | 0.29 |
| O=c1cc(-c2cccc3c2Sc2ccccc2S3)oc(N2CCOCC2)c1 + CC(=O)Nc1cccc(-n2c(=O)n(C3CC3)c(=O)c3c(Nc4ccc(I)cc4F)n(C)c(=O)c(C)c32)c1 [Trametinib] (partner 0.02 µM) | EPLC-272H | 0.238 |
| O=c1cc(-c2cccc3c2Sc2ccccc2S3)oc(N2CCOCC2)c1 + Cc1cc(Nc2cc(N3CCN(C)CC3)nc(Sc3ccc(NC(=O)C4CC4)cc3)n2)n[nH]1 [Tozasertib] (partner 0.1 µM) | EPLC-272H | 0.299 |

====

A collection of molecules and their measured relative viability
System: EPLC-272H
Assay: relative viability (nuclei count vs DMSO), 5 days (fraction); higher = more cells survive
Conditions: first compound 2.53 µM

| molecule | relative viability |
| --- | --- |
| COc1nc(C)cnc1NS(=O)(=O)c1cccnc1-c1ccc(-c2nnco2)cc1 [Zibotentan] + C[C@]1(O)C[C@@H](c2nc(-c3ccc4ccc(-c5ccccc5)nc4c3)c3c(N)nccn32)C1 [Linsitinib] (partner 1 µM) | 1.22 |
| COc1nc(C)cnc1NS(=O)(=O)c1cccnc1-c1ccc(-c2nnco2)cc1 [Zibotentan] + Cc1cc(Nc2cc(N3CCN(C)CC3)nc(Sc3ccc(NC(=O)C4CC4)cc3)n2)n[nH]1 [Tozasertib] (partner 0.1 µM) | 0.281 |
| COc1nc(C)cnc1NS(=O)(=O)c1cccnc1-c1ccc(-c2nnco2)cc1 [Zibotentan] + CC(=O)c1c(C)c2cnc(Nc3ccc(N4CCNCC4)cn3)nc2n(C2CCCC2)c1=O [Palbociclib] (partner 0.5 µM) | 0.33 |
| O=c1cc(-c2cccc3c2Sc2ccccc2S3)oc(N2CCOCC2)c1 + CS(=O)(=O)N1CCN(Cc2cc3nc(-c4cccc5[nH]ncc45)nc(N4CCOCC4)c3s2)CC1 [Pictilisib] (partner 1 µM) | 0.289 |
| O=c1cc(-c2cccc3c2Sc2ccccc2S3)oc(N2CCOCC2)c1 + COc1cccc2cc(-c3nc([C@H]4CC[C@H](C(=O)O)CC4)n4ncnc(N)c34)[nH]c12 [OSI-027] (partner 0.5 µM) | 0.251 |
| O=c1cc(-c2cccc3c2Sc2ccccc2S3)oc(N2CCOCC2)c1 + CC(C)C[C@H](NC(=O)[C@H](Cc1ccccc1)NC(=O)c1cnccn1)B(O)O [Bortezomib] (partner 0.002 µM) | 0.721 |
| O=c1cc(-c2cccc3c2Sc2ccccc2S3)oc(N2CCOCC2)c1 + CC1(C)CCC(c2ccc(Cl)cc2)=C(CN2CCN(c3ccc(C(=O)NS(=O)(=O)c4ccc(N[C@H](CCN5CCOCC5)CSc5ccccc5)c(S(=O)(=O)C(F)(F)F)c4)cc3)CC2)C1 [Navitoclax] (partner 0.5 µM) | 1.09 |
| COc1nc(C)cnc1NS(=O)(=O)c1cccnc1-c1ccc(-c2nnco2)cc1 [Zibotentan] + Cc1nc(Nc2ncc(C(=O)Nc3c(C)cccc3Cl)s2)cc(N2CCN(CCO)CC2)n1 [Dasatinib] (partner 0.075 µM) | 0.33 |
| COc1nc(C)cnc1NS(=O)(=O)c1cccnc1-c1ccc(-c2nnco2)cc1 [Zibotentan] + N=C(N)NC(=N)NCCc1ccccc1 [Phenformin] (partner 250 µM) | 0.306 |

Where do the numbers come from? From the supplement of paper PMC10307832.
